src = PubChem BioAssay AID588780

- System: H9c2 cardiomyocytes, 2-deoxyglucose stress, ATP luminescence, 2 h
- test_method_notes: H9c2 cell survival under 2-deoxyglucose stress – uHTS hits, dose response (AID 588780)
Calls of active or inactive are those of the source.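 The calls were made as follows: active = compounds whose fitted half-maximal concentration in the cell-protection dose series is at or below a set limit; inactive = the rest.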
parameter_measured: IC50

Just so you know, measured IC50 for CCN(CCO)c1ncnc2c1sc1nc(C(C)C)c3c(c12)CC(C)(C)OC3 came out at > 79 µM (inactive)

Just so you know, measured IC50 for CCOC(=O)c1cccc(NC(=O)CSc2nc3ccccc3c(=O)n2CCOC)c1 came out at 34.1 µM (inactive)

Just so you know, measured IC50 for O=C(CN(c1ccc2c(c1)OCCO2)S(=O)(=O)c1ccccc1)Nc1ccc2c(c1)OCO2 came out at > 79 µM (inactive)

Just so you know, measured IC50 for CCCn1c(=O)c(C(=O)NCCc2ccc(Cl)cc2)c(O)c2ccccc21 came out at 11 µM

Just so you know, measured IC50 for COc1ccc(COc2cc(-c3cccc(OC)c3)nc3ccc(NC(=O)c4cccnc4)cc23)cc1 came out at > 79 µM (inactive)

Just so you know, measured IC50 for O=C(OCC(=O)N1CCc2ccccc21)c1n[nH]c(=O)c2ccccc12 came out at > 79 µM (inactive)

Just so you know, measured IC50 for Brc1cc2c(cc1/C=N/Nc1nc(N3CCCC3)nc(N3CCOCC3)n1)OCO2 came out at > 79 µM (inactive)

Just so you know, measured IC50 for O=C1c2ccccc2NC(c2ccc(Cl)cc2Cl)N1O (stereo not given) came out at 35 µM (inactive)

Just so you know, measured IC50 for COc1ccc(N(Cc2cc3cc(OC)ccc3[nH]c2=O)C(=O)c2cccnc2)cc1 came out at > 79 µM (inactive)

Just so you know, measured IC50 for COc1ccccc1C(=O)NCC(=O)N/N=C/c1cc(Br)ccc1OC(=O)/C=C\c1ccco1 came out at > 79 µM (inactive)
